System: Staphylococcus aureus
experiment_notes: Antibacterial activity against methicillin-sensitive Staphylococcus aureus ATCC 29213 by broth microdilution method
Format: functional
measurement_type: MIC (µg/mL)
// return numeric value only (unit: µg/mL, not printed)

Suppose we examine the compound CC[C@H]1C[C@@]23OC(=O)C(=C2O)C(=O)[C@]2(CC)[C@@H](C=C[C@@H]4[C@@H](O[C@H]5C[C@@H](O)[C@H](NC(=O)c6[nH]cc(Br)c6Br)[C@@H](C)O5)[C@@H](C)CC[C@@H]42)CCCC/C=C/[C@@]3(C)C=C1C(=O)O ; what MIC value has been reported?
8

----------
Tested on: Enterococcus faecalis
experiment_notes: Antibacterial activity against vancomycin-resistant Enterococcus faecalis isolate L560 by broth microdilution method
Type: functional
Here, each record is paired with measured MIC data.
// return numeric value only (unit: µg/mL, not printed)

Recorded MIC, per entry:
[
  {
    "item_smiles": "CC[C@H]1C[C@@]23OC(=O)C(=C2O)C(=O)[C@]2(CC)[C@@H](C=C[C@@H]4[C@@H](O[C@H]5C[C@@H](O)[C@H](NC(=O)c6[nH]ccc6Br)[C@@H](C)O5)[C@@H](C)CC[C@@H]42)CCCC/C=C/[C@@]3(C)C=C1C(=O)O",
    "MIC / µg/mL": 16
  },
  {
    "item_smiles": "CC[C@H]1C[C@@]23OC(=O)C(=C2O)C(=O)[C@]2(CC)[C@@H](C=C[C@@H]4[C@@H](O[C@H]5C[C@@H](O)[C@H](NC(=O)c6[nH]c(Cl)cc6Cl)[C@@H](C)O5)[C@@H](C)CC[C@@H]42)CCCC/C=C/[C@@]3(C)C=C1C(=O)O",
    "MIC / µg/mL": 0.5
  },
  {
    "item_smiles": "CC[C@H]1C[C@@]23OC(=O)C(=C2O)C(=O)[C@]2(CC)[C@@H](C=C[C@@H]4[C@@H](O[C@H]5C[C@@H](O)[C@H](NC(=O)c6[nH]c(Cl)c(Cl)c6Cl)[C@@H](C)O5)[C@@H](C)CC[C@@H]42)CCCC/C=C/[C@@]3(C)C=C1C(=O)O",
    "MIC / µg/mL": 2
  }
]

Hi! What's the reported MIC for CC[C@H]1C[C@@]23OC(=O)C(=C2O)C(=O)[C@]2(CC)[C@@H](C=C[C@@H]4[C@@H](O[C@H]5C[C@@H](O)[C@H](NC(=O)c6[nH]cc(Br)c6Br)[C@@H](C)O5)[C@@H](C)CC[C@@H]42)CCCC/C=C/[C@@]3(C)C=C1C(=O)O on Enterococcus faecalis?
16

----------
Tested on: Enterococcus faecalis
experiment_notes: Antibacterial activity against vancomycin-sensitive Enterococcus faecalis isolate L559 by broth microdilution method
Assay type: functional
Here, each record is paired with measured MIC data.

Recorded MIC, per entry:
[
  {
    "item_smiles": "CC[C@H]1C[C@@]23OC(=O)C(=C2O)C(=O)[C@]2(CC)[C@@H](C=C[C@@H]4[C@@H](O[C@H]5C[C@@H](O)[C@H](NC(=O)c6[nH]c(Cl)cc6Cl)[C@@H](C)O5)[C@@H](C)CC[C@@H]42)CCCC/C=C/[C@@]3(C)C=C1C(=O)O",
    "MIC": "0.5 µg/mL"
  },
  {
    "item_smiles": "CC[C@H]1C[C@@]23OC(=O)C(=C2O)C(=O)[C@]2(CC)[C@@H](C=C[C@@H]4[C@@H](O[C@H]5C[C@@H](O)[C@H](NC(=O)c6[nH]cc(Br)c6Br)[C@@H](C)O5)[C@@H](C)CC[C@@H]42)CCCC/C=C/[C@@]3(C)C=C1C(=O)O",
    "MIC": "32 µg/mL"
  }
]

Consider now this further compound.
Suppose we examine the compound CC[C@H]1C[C@@]23OC(=O)C(=C2O)C(=O)[C@]2(CC)[C@@H](C=C[C@@H]4[C@@H](O[C@H]5C[C@@H](O)[C@H](NC(=O)c6[nH]c(Cl)c(Cl)c6Cl)[C@@H](C)O5)[C@@H](C)CC[C@@H]42)CCCC/C=C/[C@@]3(C)C=C1C(=O)O ; what MIC value has been reported?
2 µg/mL
